Test system: HepG2
Assay: cell viability relative to DMSO; higher = less toxic
Details: 72 h; 1000 nM
List of cell viability values.

compound: CC1(C)S[C@@H]2[C@H](N3C(=O)[C@@H](c4ccccc4)NC3(C)C)C(=O)N2[C@H]1C(=O)O [hetacillin]
cell viability [%]: 110

compound: O=C(O)C1=CCCN(CCON=C(c2ccccc2)c2ccccc2)C1 [NNC-711]
cell viability [%]: 109

compound: CCc1ccc(/C=C2/SC(=S)NC2=O)cc1
cell viability [%]: 95.9

compound: Cc1ccc(CNc2ncnc3ccc(-c4ccc(CO)o4)cc23)o1 [ML167]
cell viability [%]: 93.5

compound: Cc1ccc(Nc2c(F)cccc2Cl)c(CC(=O)O)c1 [lumiracoxib]
cell viability [%]: 106

====

List of cell viability values.
System: Calu-3
Test: cell viability relative to DMSO; higher = less toxic
Details: 72 h; 1000 nM

compound: C[C@]12CC[C@H](O)CC1=CC[C@@H]1[C@@H]2CC[C@]2(C)C(n3cnc4ccccc43)=CC[C@@H]12
unit.abbrev: %
cell viability: 99.6

compound: O=C(O)COc1nn(Cc2ccccc2)c2ccccc12
unit.abbrev: %
cell viability: 103

compound: CC(C)(CO)Cc1cc(C(C)(C)C)c(O)c(C(C)(C)C)c1
unit.abbrev: %
cell viability: 105

compound: c1ccc(Oc2nc(NC3CCCCC3)c3[nH]cnc3n2)cc1
unit.abbrev: %
cell viability: 104

compound: CCCCCCCCCCCCCCCC[n+]1ccccc1
unit.abbrev: %
cell viability: 84.3

compound: Cc1cc(Nc2nc(N[C@@H](C)c3ncc(F)cn3)ncc2Cl)[nH]n1
unit.abbrev: %
cell viability: 96.6

compound: N#Cc1cc(F)cc(-c2nc(-c3ccc(F)cn3)no2)c1
unit.abbrev: %
cell viability: 90.4

compound: O=C(OCCN1CCOCC1)c1cccnc1Nc1cccc(C(F)(F)F)c1 [morniflumate]
unit.abbrev: %
cell viability: 106

compound: CC(CN(C)C)CN1c2ccccc2CCc2ccccc21 (centres undefined)
unit.abbrev: %
cell viability: 105

====

System: Calu-3
Test: cell viability relative to DMSO; higher = less toxic
Settings: 72 h; 10000 nM
List of cell viability values.

compound: CCCn1c(=O)c2nc(C34CC5CC(CC3C5)C4)[nH]c2n(CCC)c1=O
cell viability, %: 100

compound: CCOC(=O)c1c(/C(C#N)=C\N)c2ccc(Cl)c(Cl)c2n1C
cell viability, %: 101

compound: Cc1c(O)c(=O)n(-c2ccccc2)n1C [4-hydroxy-phenazone]
cell viability, %: 102

compound: Cn1c(=O)cnn(CCCCN2CCN(c3ncccn3)CC2)c1=O
cell viability, %: 103

compound: O=C(O)c1ccc2c(c1)nc(Nc1cccc(Cl)c1)c1ccncc12
cell viability, %: 83.2

compound: Cc1c(F)cccc1NC(=O)Nc1ccc(Cl)c(S(=O)(=O)[C@H]2CCCNC2)c1O
cell viability, %: 95.6

compound: CCC1=C[C@@H]2CN3CCc4c([nH]c5ccccc45)[C@@](C(=O)OC)(C2)[C@@H]13
cell viability, %: 101

compound: CCc1cc(-c2[nH]nc(C)c2-c2ccc3c(c2)OCCO3)c(O)cc1O
cell viability, %: 58.8

compound: NCCCCCC(O)(P(=O)(O)O)P(=O)(O)O
cell viability, %: 106

====

List of drug sensitivity score values.
Tested on: HepG2
Test: drug sensitivity score (DSS) for viability; higher = more toxic; extreme values may be limits of the assay
Conditions: 72 h
measurement.label: drug sensitivity score

compound: CCN(CC)CCOC(=O)C1(c2ccccc2)CCCC1 [caramiphen]
recorded.value: 0

compound: CC(C)CCC[C@@H](C)[C@H]1CC[C@H]2[C@@H]3CCC4=CC(=NO)CC[C@]4(C)[C@H]3CC[C@]12C [olesoxime]
recorded.value: 0

compound: N[C@@H](CCC(=O)N[C@@H](CS)C(=O)NCC(=O)O)C(=O)O [glutathione]
recorded.value: 0

compound: O=C(Nc1c[nH]nc1-c1nc2ccc(CN3CCOCC3)cc2[nH]1)NC1CC1 [AT-9283]
recorded.value: 10.8

compound: CCOC(=O)c1c(/C(C#N)=C\N)c2ccc(Cl)c(Cl)c2n1C [KH-CB19]
recorded.value: 0

compound: Cc1cc(C)n(-c2cccc([C@H](CC(=O)O)CN3CC[C@@H](CCc4ccc5c(n4)NCCC5)C3)c2)n1 [integrin-antagonist-1]
recorded.value: 0

compound: CCC(=O)O[C@]1(C(=O)CCl)[C@@H](C)C[C@H]2[C@@H]3CCC4=CC(=O)C=C[C@]4(C)[C@@]3(F)[C@@H](O)C[C@@]21C [clobetasol-propionate]
recorded.value: 0.8

compound: N#Cc1cc(F)cc(-c2nc(-c3ccc(F)cn3)no2)c1 [AZD9272]
recorded.value: 0
